Test: AUC (0 to t) in mouse at 2 mg/kg, iv measured for 24 hrs by LC-MS/MS analysis
Format: ADME, organism-based
Conditions: in vivo
READOUT KIND: AUC(0-t) at 24 h (ng·h/mL)
Write down the numeric answer in ng·h/mL and omit the unit.

# query: AUC(0-t) at 24 h of entry "COC(=O)C1(NC(=O)N[C@]2(C)CC[C@]3(C)CC[C@]4(C)C5=CC=C6C(=CC(=O)C(O)=C6C)[C@]5(C)CC[C@@]4(C)[C@@H]3C2)CCC1"
364

---

Test: Antiproliferative activity against mouse […] cells
Type: toxicity, cell-based
pIC50: −log10 of the molar value.
READOUT KIND: pIC50

# query: pIC50 of entry "COC(=O)C1(NC(=O)N[C@]2(C)CC[C@]3(C)CC[C@]4(C)C5=CC=C6C(=CC(=O)C(O)=C6C)[C@]5(C)CC[C@@]4(C)[C@@H]3C2)CCC1"
~6.00

Recorded values, source ChEMBL document CHEMBL5543168.
